Measurement target: Mannose-6-phosphate isomerase (Homo sapiens) (UniProt P34949)
Sequence (P34949 whole entry, looked up): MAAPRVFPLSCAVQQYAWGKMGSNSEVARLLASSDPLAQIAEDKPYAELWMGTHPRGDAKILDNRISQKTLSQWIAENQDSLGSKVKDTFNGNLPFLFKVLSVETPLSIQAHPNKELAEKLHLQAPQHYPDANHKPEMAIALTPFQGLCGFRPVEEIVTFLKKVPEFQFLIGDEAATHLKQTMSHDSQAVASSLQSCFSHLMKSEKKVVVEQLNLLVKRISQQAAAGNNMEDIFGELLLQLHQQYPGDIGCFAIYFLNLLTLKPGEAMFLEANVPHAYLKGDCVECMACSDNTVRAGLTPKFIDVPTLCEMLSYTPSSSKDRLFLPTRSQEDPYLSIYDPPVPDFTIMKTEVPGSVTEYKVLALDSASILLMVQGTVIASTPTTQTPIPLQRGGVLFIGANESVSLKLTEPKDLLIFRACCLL
Protocol notes: MPI inhibition at elevated mannose 6-phosphate – biochemical, fluorescence intensity, high mannose 6-phosphate, primary screen (AID 1220)
Test settings: recombinant PMI enzyme, coupled fluorescence intensity; at 20 µM; stronger effect = higher value
Among all 190,000 compounds or so, about 1,300 (0.68%) were called active. Many of the other results were omitted from the sample, so actives are more common in it than they were.
Observed property: inhibition (%)
Quick reminder: number only, in %, skip the unit.

// solved cases for inhibition follow
{"Compound": "C[C@@H]1O[C@@H](OC[C@H]2O[C@@H](Oc3c(-c4ccc(O)c(O)c4)oc4cc(O)cc(O)c4c3=O)[C@H](O)[C@@H](O)[C@@H]2O)[C@H](O)[C@H](O)[C@H]1O", "Display unit": "%", "inhibition": 18.4}
{"Compound": "Cc1cccc(N=C2NC(=O)c3cc([N+](=O)[O-])ccc32)c1", "Display unit": "%", "inhibition": 0.2}
{"Compound": "O=C(Nc1ccc(NC(=O)C2CCCN2C(=O)OCc2ccccc2)cc1)c1ccco1 (stereo unspecified)", "Display unit": "%", "inhibition": -8.3}
{"Compound": "COc1ccc(NC(=S)Nc2ccccc2SC)c(OC)c1", "Display unit": "%", "inhibition": 20.7}
{"Compound": "CC(=O)N1c2ccccc2C(C)(C)C2CCC(C)CC21 (stereo unspecified)", "Display unit": "%", "inhibition": -3.5}

GET /values?readout=inhibition&item= CCOC(=O)c1c(C)n(C)c2ccc(O)c(CN3CCC(C)CC3)c12
22.9

// lookup inhibition for Cc1ccsc1/C=C/c1ccc2cccc(O)c2n1
-8.2

Need inhibition, item CC(=O)OCCCNc1cc(Sc2ccc(C)cc2)c2nonc2c1[N+](=O)[O-]
45.7
